# Tested System: VPS34 (Homo sapiens, UniProt Q8NEB9)
# Construct: GST (N); host or cells: SF9 insect cells (baculovirus)
# Sequence (Q8NEB9 whole entry): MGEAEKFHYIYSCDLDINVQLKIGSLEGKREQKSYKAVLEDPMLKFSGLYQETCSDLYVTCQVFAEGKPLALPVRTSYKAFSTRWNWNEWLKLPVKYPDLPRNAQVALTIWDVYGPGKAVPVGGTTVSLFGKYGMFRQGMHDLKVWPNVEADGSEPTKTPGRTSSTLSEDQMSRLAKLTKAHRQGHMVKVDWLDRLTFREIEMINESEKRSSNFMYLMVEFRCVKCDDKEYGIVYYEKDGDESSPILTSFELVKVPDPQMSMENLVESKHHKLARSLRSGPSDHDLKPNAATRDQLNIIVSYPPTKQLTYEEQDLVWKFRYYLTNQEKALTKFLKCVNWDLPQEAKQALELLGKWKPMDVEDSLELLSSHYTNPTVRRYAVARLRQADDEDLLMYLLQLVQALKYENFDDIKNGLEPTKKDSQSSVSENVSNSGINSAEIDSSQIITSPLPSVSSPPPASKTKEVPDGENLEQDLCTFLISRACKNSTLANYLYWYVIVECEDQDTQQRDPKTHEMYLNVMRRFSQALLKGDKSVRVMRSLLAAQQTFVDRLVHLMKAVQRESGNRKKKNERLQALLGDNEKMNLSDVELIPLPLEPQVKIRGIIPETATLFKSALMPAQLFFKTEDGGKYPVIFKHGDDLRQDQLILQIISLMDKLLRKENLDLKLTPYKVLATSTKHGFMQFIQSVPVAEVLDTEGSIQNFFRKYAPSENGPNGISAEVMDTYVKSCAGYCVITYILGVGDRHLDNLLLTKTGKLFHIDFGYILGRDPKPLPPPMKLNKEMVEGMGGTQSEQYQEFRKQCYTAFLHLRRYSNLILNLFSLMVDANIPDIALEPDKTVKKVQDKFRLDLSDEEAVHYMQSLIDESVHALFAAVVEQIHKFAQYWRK
# Method Notes: Human VPS34 enzyme assay (Adapta Universal Kinase Assay)
# Assay type: biochemical
# Applied Conditions: 1 h, read-out: VPS34 % ihn
# Experimental: VPS34 (accession number GB:BC033004) is cloned into pDEST20-Thombin as N-terminal GST tagged fusion proteins using the Gateway system (Invitrogen, catalog#11804-013). […] […] compounds in DMSO are added to wells of a 384 well microtitre plate (Greiner 780076). […] The plates are then incubated for 30 minutes at room temperature with shaking and then read on a BMG PheraStar Plus reader.
Reported Endpoint: inhibition at 1.11 µM (%)
Answer in %, number only, no unit symbol.

Query :: Give VPS34 (Homo sapiens, UniProt Q8NEB9) inhibition at 1.11 µM for CC1(C)NC(=O)c2sc(-c3ccncc3)cc2C1c1ccc(Cl)cc1 (stereo not drawn) [Compound 191]
Result :: 7.04

Query :: Next: CC(=O)Nc1cc(-c2cc3c(s2)C(=O)NCCC3c2ccc(Cl)cc2)ccn1 (stereo not drawn) [Compound 1]
Result :: 29.3

Query :: Next: O=C1CCC(c2ccc(Cl)cc2)c2cc(-c3ccncc3)sc21 (racemic) [Compound 13]
Result :: 6.6

Query :: Next: O=C1CC(c2ccc(Cl)cc2F)c2cc(N3CCOCC3)sc21 (stereo not drawn) [Compound 117]
Result :: 6.21

Query :: Next: O/N=C1\CCC(c2ccc(Cl)cc2)c2cc(-c3ccncc3)sc21 (stereo not drawn) [Compound 24]
Result :: -6.9

Where do the numbers come from? From patent US8765746B2.
